meta.source: ChEMBL document CHEMBL4049407

Collected Ki values appear next to each entry.
- tested-system: Furin (Homo sapiens, UniProt P09958)
- Sequence (P09958 whole entry): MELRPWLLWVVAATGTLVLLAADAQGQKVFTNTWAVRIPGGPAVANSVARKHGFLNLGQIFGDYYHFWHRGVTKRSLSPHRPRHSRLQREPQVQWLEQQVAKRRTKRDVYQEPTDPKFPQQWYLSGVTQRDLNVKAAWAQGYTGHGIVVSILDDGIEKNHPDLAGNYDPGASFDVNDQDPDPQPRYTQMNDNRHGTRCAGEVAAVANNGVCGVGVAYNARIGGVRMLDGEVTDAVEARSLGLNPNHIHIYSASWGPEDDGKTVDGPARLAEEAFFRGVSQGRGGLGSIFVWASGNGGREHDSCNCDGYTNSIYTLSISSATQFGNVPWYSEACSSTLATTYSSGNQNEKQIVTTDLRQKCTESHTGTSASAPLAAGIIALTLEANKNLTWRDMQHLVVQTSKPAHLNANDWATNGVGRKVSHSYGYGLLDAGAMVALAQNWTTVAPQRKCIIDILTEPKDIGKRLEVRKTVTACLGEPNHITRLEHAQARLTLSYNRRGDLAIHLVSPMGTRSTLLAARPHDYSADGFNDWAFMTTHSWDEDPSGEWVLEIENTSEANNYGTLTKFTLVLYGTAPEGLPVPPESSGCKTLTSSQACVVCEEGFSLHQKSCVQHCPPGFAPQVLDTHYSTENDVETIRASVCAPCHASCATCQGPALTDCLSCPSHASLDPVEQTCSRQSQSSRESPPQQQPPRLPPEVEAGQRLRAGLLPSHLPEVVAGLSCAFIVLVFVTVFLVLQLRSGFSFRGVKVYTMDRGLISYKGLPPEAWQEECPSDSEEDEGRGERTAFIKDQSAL
- measurement-protocol: Inhibition of recombinant human furin expressed in drosophila S2 cells using pyrGlu-Arg-Thr-Lys-Arg-7-amido-4-methylcoumarin as substrate after 60 mins by spectrofluorometry method
Peptide text beside a SMILES is read from it. * marks the point of attachment. NH(4-amidinobenzyl) = N=C(N)c1ccc(CN*)cc1
# number only, unit nM dropped from output

These recorded examples may help you get a feel for the data.
molecule	tested-system	measured-parameter	numeric-readout
CC(=O)N[C@@H](CC(C)C)C(=O)N[C@@H](Cc1cnc[nH]1)C(=O)N[C@@H](CC(C)C)C(=O)N[C@@H](CC(C)C)C(=O)N[C@@H](CCCNC(=N)N)C(=O)N[C@H](C(=O)N[C@@H](CCCCN)C(=O)NCc1ccc(C(=N)N)cc1)C(C)C (Ac-LHLLRVK-{NH(4-amidinobenzyl)})	Furin (Homo sapiens, UniProt P09958)	Ki	4.7
CC(=O)N[C@@H](Cc1ccccc1)C(=O)N[C@@H](CC(C)C)C(=O)N[C@@H](CC(C)C)C(=O)N[C@@H](CC(C)C)C(=O)N[C@@H](CCCNC(=N)N)C(=O)N[C@H](C(=O)N[C@@H](CCCCN)C(=O)NCc1ccc(C(=N)N)cc1)C(C)C (Ac-FLLLRVK-{NH(4-amidinobenzyl)})	Furin (Homo sapiens, UniProt P09958)	Ki	9
CC(=O)N[C@@H](CC(C)C)C(=O)N[C@@H](CC(C)C)C(=O)N[C@@H](CC(=O)O)C(=O)N[C@@H](CC(C)C)C(=O)N[C@@H](CCCNC(=N)N)C(=O)N[C@H](C(=O)N[C@@H](CCCCN)C(=O)NCc1ccc(C(=N)N)cc1)C(C)C (Ac-LLDLRVK-{NH(4-amidinobenzyl)})	Furin (Homo sapiens, UniProt P09958)	Ki	140

Pending molecule:
Exercise: Determine from records and report Ki for CC(=O)N[C@@H](CO)C(=O)N[C@@H](CC(C)C)C(=O)N[C@@H](CC(C)C)C(=O)N[C@@H](CC(C)C)C(=O)N[C@@H](CCCNC(=N)N)C(=O)N[C@H](C(=O)N[C@@H](CCCCN)C(=O)NCc1ccc(C(=N)N)cc1)C(C)C (Ac-SLLLRVK-{NH(4-amidinobenzyl)})
Solution: 4

* * *

- tested-system: Furin (Homo sapiens, UniProt P09958)
- measurement-protocol: Inhibition of recombinant human furin expressed in drosophila S2 cells using pyrGlu-Arg-Thr-Lys-Arg-7-amido-4-methylcoumarin as substrate after 60 mins by spectrofluorometry method
Peptide text beside a SMILES is read from it. * marks the point of attachment. NH(4-amidinobenzyl) = N=C(N)c1ccc(CN*)cc1
measured-parameter: pKi
pKi is a log-scale quantity: -log10 of the concentration expressed in molar.

compound	tested-system	numeric-readout
CC(=O)NCC(=O)N[C@@H](CC(C)C)C(=O)N[C@@H](CC(C)C)C(=O)N[C@@H](CC(C)C)C(=O)N[C@@H](CCCNC(=N)N)C(=O)N[C@H](C(=O)N[C@@H](CCCCN)C(=O)NCc1ccc(C(=N)N)cc1)C(C)C (Ac-GLLLRVK-{NH(4-amidinobenzyl)})	Furin (Homo sapiens, UniProt P09958)	8.52
CC(=O)N[C@@H](CC(C)C)C(=O)N[C@@H](CCC(N)=O)C(=O)N[C@@H](CC(C)C)C(=O)N[C@@H](CC(C)C)C(=O)N[C@@H](CCCNC(=N)N)C(=O)N[C@H](C(=O)N[C@@H](CCCCN)C(=O)NCc1ccc(C(=N)N)cc1)C(C)C (Ac-LQLLRVK-{NH(4-amidinobenzyl)})	Furin (Homo sapiens, UniProt P09958)	8.64
CC[C@H](C)[C@H](NC(=O)[C@H](CC(C)C)NC(C)=O)C(=O)N[C@@H](CC(C)C)C(=O)N[C@@H](CC(C)C)C(=O)N[C@@H](CCCNC(=N)N)C(=O)N[C@H](C(=O)N[C@@H](CCCCN)C(=O)NCc1ccc(C(=N)N)cc1)C(C)C (Ac-LILLRVK-{NH(4-amidinobenzyl)})	Furin (Homo sapiens, UniProt P09958)	8.70
CC(=O)N[C@@H](Cc1cnc[nH]1)C(=O)N[C@@H](CC(C)C)C(=O)N[C@@H](CC(C)C)C(=O)N[C@@H](CC(C)C)C(=O)N[C@@H](CCCNC(=N)N)C(=O)N[C@H](C(=O)N[C@@H](CCCCN)C(=O)NCc1ccc(C(=N)N)cc1)C(C)C (Ac-HLLLRVK-{NH(4-amidinobenzyl)})	Furin (Homo sapiens, UniProt P09958)	8.74
CC(=O)N[C@@H](CC(C)C)C(=O)N[C@@H](CC(C)C)C(=O)N[C@@H](CC(C)C)C(=O)N[C@H](C(=O)N[C@@H](CCCNC(=N)N)C(=O)N[C@H](C(=O)N[C@@H](CCCCN)C(=O)NCc1ccc(C(=N)N)cc1)C(C)C)[C@@H](C)O (Ac-LLLTRVK-{NH(4-amidinobenzyl)})	Furin (Homo sapiens, UniProt P09958)	8.35

Exercise: Fill in reported pKi for this entry: CC(=O)N[C@@H](CC(C)C)C(=O)N[C@@H](CC(C)C)C(=O)N[C@@H](CC(C)C)C(=O)N[C@@H](CCCCN)C(=O)N[C@@H](CCCNC(=N)N)C(=O)N[C@H](C(=O)N[C@@H](CCCCN)C(=O)NCc1ccc(C(=N)N)cc1)C(C)C (Ac-LLLKRVK-{NH(4-amidinobenzyl)})
Solution: 9.05

Exercise: // Input: CC(=O)N[C@@H](CC(C)C)C(=O)NCC(=O)N[C@@H](CC(C)C)C(=O)N[C@@H](CC(C)C)C(=O)N[C@@H](CCCNC(=N)N)C(=O)N[C@H](C(=O)N[C@@H](CCCCN)C(=O)NCc1ccc(C(=N)N)cc1)C(C)C (Ac-LGLLRVK-{NH(4-amidinobenzyl)}) . Output its pKi only.
Solution: 8.52
